Source of measurements: the supplement of paper PMC10724198

protein stability index for assorted sequences
- System: Saccharomyces cerevisiae
- assay protocol: protein stability index of tFT-peptide fusion (C-terminal peptide) (PSI (0-1 scale)); higher = more stable (slower turnover)
- condition parameters: genetic background: cdc34-1; temperature: 37 C
// no unit, no text: just the number

Worked examples follow.
{"monomer sequence": "FITFLVFVGFFL", "protein stability index": 0.393}
{"monomer sequence": "YWGFHPCCAFGY", "protein stability index": 0.722}
{"monomer sequence": "APPPLFLIVLHL", "protein stability index": 0.469}
{"monomer sequence": "RLPSSNVRYWVS", "protein stability index": 0.637}
{"monomer sequence": "VWSCILPMVYVW", "protein stability index": 0.111}

// sample IFCRCNSTVLLI , its protein stability index was 0.547

Lookup result for KSRLFCFVYFLL ; measured protein stability index: 0.333

====

Item-by-item account of protein stability index
- Tested on: Saccharomyces cerevisiae
- assay protocol: protein stability index of tFT-peptide fusion (C-terminal peptide) (PSI (0-1 scale)); higher = more stable (slower turnover)
- condition parameters: genetic background: wild type; temperature: 30 C
Please give only the number in your answer, with no unit.

These recorded examples may help you get a feel for the data.
{"monomer sequence": "SLILSAGLGFFF", "protein stability index": 0.719}
{"monomer sequence": "SEVGLSFGLVSF", "protein stability index": 0.719}
{"monomer sequence": "PPPAYTPPLPPP", "protein stability index": 0.669}
{"monomer sequence": "FADTALLCELLR", "protein stability index": 0.687}
{"monomer sequence": "SRRVSLGLSVDS", "protein stability index": 0.662}
{"monomer sequence": "RKISLNSPPRES", "protein stability index": 0.757}
{"monomer sequence": "VGSRWNKELSQS", "protein stability index": 0.725}
{"monomer sequence": "SAPVPPSPPRPR", "protein stability index": 0.8}
{"monomer sequence": "SSFLSFSSGCQS", "protein stability index": 0.757}
{"monomer sequence": "NIAPPNHASIVL", "protein stability index": 0.695}

Per the record, GLEGSVRRVRGS has protein stability index of 0.701

The sequence listed as PAPPPPPPALLP has a reported protein stability index of 0.677

What the record says about GEQGAPLSIRYS : protein stability index is 0.622

====

- Test system: Saccharomyces cerevisiae
- assay protocol: protein stability index of tFT-peptide fusion (C-terminal peptide) (PSI (0-1 scale)); higher = more stable (slower turnover)
- condition parameters: genetic background: wild type; temperature: 30 C
# protein stability index >= 0.7 gives Yes, anything below gives No

Known results for sequences:
{"monomer sequence": "NFHVRFVPDGGR", "experimental system": "Saccharomyces cerevisiae", "class assignment": "No"}
{"monomer sequence": "SIGYDLFTKDKI", "experimental system": "Saccharomyces cerevisiae", "class assignment": "Yes"}
{"monomer sequence": "SFSFRPCLLLFF", "experimental system": "Saccharomyces cerevisiae", "class assignment": "No"}
{"monomer sequence": "IKGHLYDFPPGT", "experimental system": "Saccharomyces cerevisiae", "class assignment": "Yes"}
{"monomer sequence": "PPSAPPPLPPLL", "experimental system": "Saccharomyces cerevisiae", "class assignment": "Yes"}

Query: Threshold query (protein stability index >= 0.7) on PRLPHPPPFDSL
Reply: No

Query: Quick check, protein stability index >= 0.7? KIEHEGIKTGGT
Reply: Yes

Query: # check: protein stability index of PHPVPPRLPFPS is greater than or equal to 0.7
Reply: Yes

====

- Tested on: Saccharomyces cerevisiae
- assay protocol: protein stability index of tFT-peptide fusion (C-terminal peptide) (PSI (0-1 scale)); higher = more stable (slower turnover)
- condition parameters: genetic background: wild type; temperature: 30 C
Tag: yes (1) if measured protein stability index is not below 0.2, no (0) if it is.

Consider the following illustrative entries.
{"monomer sequence": "GIVYFDQWISVS", "class assignment": "yes (1)"}
{"monomer sequence": "MPQSLKKMVFLA", "class assignment": "no (0)"}
{"monomer sequence": "PTPSRPPHPPLR", "class assignment": "yes (1)"}
{"monomer sequence": "LLCLLLVPQPHR", "class assignment": "yes (1)"}
{"monomer sequence": "LRLEFRTNWFLQ", "class assignment": "no (0)"}
{"monomer sequence": "ILVFHFWPFLVR", "class assignment": "yes (1)"}

Continue with the next sequence.
Query: Can CGQIAFLGIAVK be said to have protein stability index at or above 0.2?
Reply: yes (1)

====

- System: Saccharomyces cerevisiae
- assay protocol: protein stability index of tFT-peptide fusion (C-terminal peptide) (PSI (0-1 scale)); higher = more stable (slower turnover)
- condition parameters: genetic background: das1 deletion; temperature: 37 C
Kind request: treat 0.5 as inclusive, so protein stability index at 0.5 or higher is met, anything lower is not met.

Example results:
{"monomer sequence": "NGLVCVFILSWY", "experimental system": "Saccharomyces cerevisiae", "class assignment": "not met"}
{"monomer sequence": "LCSCMWISAIAI", "experimental system": "Saccharomyces cerevisiae", "class assignment": "met"}
{"monomer sequence": "VKVKMKIIIIIK", "experimental system": "Saccharomyces cerevisiae", "class assignment": "not met"}
{"monomer sequence": "NFFIQFHNLLFP", "experimental system": "Saccharomyces cerevisiae", "class assignment": "met"}
{"monomer sequence": "LLVRYRRALVLL", "experimental system": "Saccharomyces cerevisiae", "class assignment": "met"}

Query: Determine whether measured protein stability index meets or exceeds 0.5 for FFLSFRLFSILL
Reply: not met

Query: Could you tell me if the measured protein stability index of FVFAMSECIVLS reaches 0.5 or more?
Reply: not met

====

protein stability index listing for selected sequences.
- Test system: Saccharomyces cerevisiae
- assay protocol: protein stability index of tFT-peptide fusion (C-terminal peptide) (PSI (0-1 scale)); higher = more stable (slower turnover)
- condition parameters: genetic background: wild type; temperature: 37 C
Respond numerically, and do not add a unit to the figure.

# count of solved cases: 5
{"monomer sequence": "PSPPPYAPPIPA", "protein stability index": 0.563}
{"monomer sequence": "PPSRSPLPPLLH", "protein stability index": 0.694}
{"monomer sequence": "ESCFGMAIFCVT", "protein stability index": 0.525}
{"monomer sequence": "IFCRCNSTVLLI", "protein stability index": 0.522}
{"monomer sequence": "LSGVLFSLIRFY", "protein stability index": 0.495}

Lab book: protein stability index of PLTSPLLFPVFA noted as 0.381

Form field protein stability index, entry GFFLLSFLFFVR : 0.311

Reported protein stability index ( NMVSMVVVIFGV ) = 0.386

Memo: LAGLVRFWGCVG , reported protein stability index: 0.236

Memo: CEERVKSRLKQN , reported protein stability index: 0.307

protein stability index for SFSFRPCLLLFF is 0.417

The value of protein stability index measured for the sequence DGYLFKGIWFFV turned out to be 0.349

====

- Tested on: Saccharomyces cerevisiae
- assay protocol: protein stability index of tFT-peptide fusion (C-terminal peptide) (PSI (0-1 scale)); higher = more stable (slower turnover)
- condition parameters: genetic background: wild type; temperature: 30 C
test readout: protein stability index
No unit in the answer, only the number.

Reference set, count: 3
{"monomer sequence": "PTSLPAPPRLPF", "protein stability index": 0.713}
{"monomer sequence": "TTQEPTPLAQEQ", "protein stability index": 0.713}
{"monomer sequence": "REMKGKLHEHRK", "protein stability index": 0.679}

The sequence listed as CNIASTLEKTCP shows protein stability index equal to 0.704

====

- System: Saccharomyces cerevisiae
- assay protocol: protein stability index of tFT-peptide fusion (C-terminal peptide) (PSI (0-1 scale)); higher = more stable (slower turnover)
- condition parameters: genetic background: wild type; temperature: 30 C
Attribute: protein stability index
Field format: numeric only.

The examples below pair each entry with its known result.
{"monomer sequence": "KKKLVKKTKSKK [RIO1 C-terminal 12 aa]", "protein stability index": 0.705}
{"monomer sequence": "RDGQKTSLIRLI [YBR259W C-terminal 12 aa]", "protein stability index": 0.57}
{"monomer sequence": "ATALSGHKANCN [MTQ1 C-terminal 12 aa]", "protein stability index": 0.642}
{"monomer sequence": "ACFTRLPTPAIL [TRM8 C-terminal 12 aa]", "protein stability index": 0.659}
{"monomer sequence": "LHVISKVAGKLF [SBH1 C-terminal 12 aa]", "protein stability index": 0.656}
{"monomer sequence": "KAINFDEDVLNL [VID30 C-terminal 12 aa]", "protein stability index": 0.748}
{"monomer sequence": "RTAYILMYQKRN [UBP3 C-terminal 12 aa]", "protein stability index": 0.135}
{"monomer sequence": "KDSKEYFKNANN [TSA2 C-terminal 12 aa]", "protein stability index": 0.716}
{"monomer sequence": "NVPVSNGTTAAQ [UTP23 C-terminal 12 aa]", "protein stability index": 0.691}
{"monomer sequence": "VFISTVLLAIVW [YAL065C C-terminal 12 aa]", "protein stability index": 0.192}

Test item KERTHLFQLIRK [EFM6 C-terminal 12 aa] ; Saccharomyces cerevisiae; reported protein stability index was 0.692

Let me check: TLSMYPRRRFYH [GPG1 C-terminal 12 aa] , system Saccharomyces cerevisiae, measured protein stability index is 0.608

Sample GLRVANPDSDPE [YDR239C C-terminal 12 aa] , system: Saccharomyces cerevisiae. Its protein stability index is 0.721

Entry TQEKLDSLLLMQ [LGE1 C-terminal 12 aa] under Saccharomyces cerevisiae had protein stability index of 0.698

Test item NPADYLLEFGSG [RTG3 C-terminal 12 aa] ; Saccharomyces cerevisiae; reported protein stability index was 0.72

GET /values?item= IFLMKKAYDLQI [EFM1 C-terminal 12 aa] &system= Saccharomyces cerevisiae returns protein stability index: 0.657

The reported Saccharomyces cerevisiae protein stability index of DFIKNPNDYFKQ [BEM2 C-terminal 12 aa] is 0.729

Reading of protein stability index for STSDFELDDLED [YPL264C C-terminal 12 aa] with Saccharomyces cerevisiae: 0.729

protein stability index on Saccharomyces cerevisiae for TCISVFLEVHQV [YDL206W C-terminal 12 aa] is 0.463

Tested on Saccharomyces cerevisiae, the item HKNHSVPRLIQV [YCL068C C-terminal 12 aa] showed protein stability index equal to 0.654

Entry NDDDEDDDDFFD [SDD2 C-terminal 12 aa] ; assay system Saccharomyces cerevisiae; protein stability index recorded at 0.695

Value sought: protein stability index, system Saccharomyces cerevisiae, item IVKIIRFNHASV [YHL048C-A C-terminal 12 aa] . Result: 0.658

The observed protein stability index for KHKQYFWKRPTK [PLM2 C-terminal 12 aa] when tested with Saccharomyces cerevisiae stands at 0.692

Form field protein stability index for item FYHVFDEPRYYL [CWH43 C-terminal 12 aa] on Saccharomyces cerevisiae: 0.709

Entry TSILEDVDGDDE [YOL050C C-terminal 12 aa] , tested on Saccharomyces cerevisiae, has a reported protein stability index of 0.669

Sample NGLWEQEKTEKR [YKR041W C-terminal 12 aa] , system: Saccharomyces cerevisiae. Its protein stability index is 0.733

Reading of protein stability index for RSVGKNSEKVST [QDR1 C-terminal 12 aa] with Saccharomyces cerevisiae: 0.695

Case ISVSKKTLKSNW [HOP1 C-terminal 12 aa] , Saccharomyces cerevisiae, protein stability index recorded as 0.686

Here DHDVSLEEVINI [MCY1 C-terminal 12 aa] was tested on Saccharomyces cerevisiae, and its protein stability index came to 0.706

ETLAKLREQGLM [TOM70 C-terminal 12 aa] on Saccharomyces cerevisiae gives protein stability index = 0.692

Bench note, Saccharomyces cerevisiae: HLTKLCIFPGLP [YLR282C C-terminal 12 aa] , protein stability index reads 0.702

Here DEDDDEDVTDQE [DLS1 C-terminal 12 aa] was tested on Saccharomyces cerevisiae, and its protein stability index came to 0.677
